Reported values of growth for individual entries
# Test system: HT29 colon
# Test name: NCI-60 one-dose screen, 48 h (100 = growth as untreated, 0 = no growth, -100 = all killed)
# Measurement parameters: 10 µM unless noted
The panel holds about 83,000 compounds, 20% with a hit somewhere; the sample as a whole holds those more often.
Record the value in %, omitting the unit from your answer.

Smiles structure: N#Cc1cnc2cc(OC[C@@H](O)CO)c(NC(=O)C3CCCC3)cc2c1Nc1ccc(OCc2cccc(F)c2)c(Cl)c1
Unit symbol: %
Assay result: -11.3
--
Smiles structure: COc1cc(-c2nc(-c3ccccc3)c(-c3ccccc3)[nH]2)cc(OC)c1O
Unit symbol: %
Assay result: 0.965
--
Smiles structure: c1ccc(-c2nc(Nc3ccc(-c4nc5ccccc5[nH]4)cc3)nc(N3CCOCC3)n2)cc1
Unit symbol: %
Assay result: -59.9

Query: Please tell me: growth of C[C@@H]1CCCCCCCCC[C@H](O)C(=O)C[C@@H](SC[C@@H](O)C(=O)O)C(=O)O1 , system HT29 colon?
Reply: 82.1

Query: Record: CC1=CC(=O)N(c2cccc3c(N4C(=O)C=C(C)C4=O)cccc23)C1=O
Reply: 18

---

# Test system: SK-MEL-5 melanoma
# Test name: NCI-60 one-dose screen, 48 h
# Measurement parameters: 10 µM unless noted
The panel holds about 83,000 compounds, 20% with a hit somewhere; the sample as a whole holds those more often. The source made the active and inactive calls. The calls were made as follows: active = growth percent below 10; inactive = the rest.
Write down one outcome, taken from Y = active, N = inactive

Use the examples below as a reference point.
Molecule: O=C(/C=C/c1ccc2ccccc2c1)Nc1ncc(Cc2ccccc2)s1
Label class: N

Molecule: COc1ccc(NC(=O)c2ccoc2COc2ccccc2)cc1
Label class: N

Molecule: O=C(NC1=CC(=O)c2ccccc2C1=O)c1ccccc1
Label class: Y

Molecule: CC1(C)C(=O)/C(=C\c2ccco2)C[C@]2(C)[C@H]3CC[C@@H]4[C@@H](C(=O)/C=C/c5ccco5)CC[C@@]4(C)[C@]3(C)CC[C@@H]12
Label class: Y

Molecule: COc1ccc2c3c(c4ccccc4cc13)C(=O)N(CCN(C)CCN)C2=O
Label class: Y

Query: For this molecule, state the assay outcome: Cc1cc(N(CCCNc2ccnc3cc(Cl)ccc23)Cc2ccco2)nc(Cl)n1
Reply: Y

Query: What about this molecule? CCCCC[C@H]1CC=C2C(=O)C(Cl)=C[C@@H]2CC=CCCCC(=O)O[C@@H](CCCCC)CC=C2C(=O)C(Cl)=C[C@@H]2CC=CCCCC(=O)O[C@@H](CCCCC)CC=C2C(=O)C(Cl)=C[C@@H]2CC=CCCCC(=O)O1
Reply: N

Query: # iterate: N#Cc1cnc2cc(OC[C@@H](O)CO)c(NC(=O)CC3CSSC3)cc2c1Nc1ccc(OCc2cccc(F)c2)c(Cl)c1
Reply: Y

Query: COc1cc(OC)c2c(c1)c1nc3cc(C)c(C)cc3nc1n2CCN(C)C , same question.
Reply: N

Query: Do the same for CC1(C)C(=O)/C(=C\c2ccccn2)C[C@]2(C)[C@H]3CC[C@@H]4[C@@H](C(=O)/C=C/c5ccccn5)CC[C@@]4(C)[C@]3(C)CC[C@@H]12 please
Reply: Y

Query: Would you mind doing COc1ccc2c(c1)c(-c1nc(-c3c[nH]c4ncccc34)cs1)cn2CCCN1CCCCC1 as well?
Reply: Y

Query: Thanks! And N#C/C(=C\c1ccc(-c2ccccc2)o1)c1nc(-c2ccco2)cs1 ?
Reply: N

Query: Same read-out for Cc1ccc(-c2nc([P+](c3ccccc3)(c3ccccc3)c3ccccc3)c(N3CCOCC3)o2)cc1 ?
Reply: Y

Query: Please answer likewise for O=C1C=Cc2ncccc2C1=O
Reply: N

---

# System: MCF7 breast
# Test name: NCI-60 one-dose screen, 48 h
# Measurement parameters: 10 µM unless noted
Compounds without any hit were thinned out: in the full panel of roughly 83,000, 20% have a hit. Active and inactive are the calls of the source. How the source made its calls: active means growth percent below 10; inactive means the rest.
# valid calls are label 1 = active, label 0 = inactive; nothing else

Answered examples (3):
Molecule: COc1ccc2c(c1)c(-c1nc(-c3c[nH]c4ncccc34)cs1)cn2CCN
Test target: MCF7 breast
Label class: label 0
//
Molecule: COc1ccc2nc(-c3c(-c4ccccc4)nc4ncccn34)[nH]c2c1
Test target: MCF7 breast
Label class: label 0
//
Molecule: Cc1c(C)c2c(c(C)c1NC(=O)CCCCCCC(=O)O)CCC(C)(CCCC(C)CCCC(C)CCCC(C)C)O2 (configuration not stated)
Test target: MCF7 breast
Label class: label 0

Query: Field: outcome | Entry: C=C(C)[C@@H]1CC[C@]2(C)[C@H](CC=C3[C@@H]4CC(C)(C)CC[C@]4(C(=O)OC)CC[C@]32C)[C@@]1(C)CC/C(N)=N/O
Reply: label 1

Query: And then CCN1CCN(C(=O)[C@]23CCC(C)(C)C[C@H]2C2=CC[C@@H]4[C@@]5(C)CC/C(=N/O)C(C)(C)[C@@H]5CC[C@@]4(C)[C@]2(C)CC3)CC1 , what is it?
Reply: label 0

Query: // repeat for O=C1Nc2ccccc2/C1=C/c1cn(CCCn2c3ccccc3c(=O)c3ccccc32)c2ccccc12 and report
Reply: label 0

Query: Here is the next molecule: Cn1c(=O)c2c(ncn2CCC(=O)Nc2ccc(F)cc2)n(C)c1=O
Reply: label 0

Query: Next molecule up: O=C1C=C(C(O)c2ccc(O)cc2)C(=O)c2ccccc21 (configuration not stated)
Reply: label 0

Query: Also, CCC(CC)C(=O)OC(C)COc1ccc(C(C)(C)C)cc1 (configuration not stated) please.
Reply: label 0

---

# System: NCI-H226 lung
# Test name: NCI-60 one-dose screen, 48 h
# Measurement parameters: 10 µM unless noted
This is part of a sample that, as a whole, favours compounds with a hit. Of some 83,000 tested, about 20% had one in any assay. Activity calls are given as the source filed them. How the source made its calls: active means growth percent below 10; inactive means the rest.
Hello, when you answer, please use one of the following outcomes: active, inactive

The examples below pair each entry with its known result.
Smiles structure: Nc1c(C(=O)Nc2cccc(Br)c2)sc2nc3c(cc12)C(=O)CCC3
Test target: NCI-H226 lung
Label class: inactive
//
Smiles structure: O=C(O[C@@H]1Cc2c(O)cc(O)cc2O[C@@H]1c1cc(O)c(O)c(O)c1)c1cc(O)c2c(c1)OCO2
Test target: NCI-H226 lung
Label class: inactive
//
Smiles structure: COc1cnc2c(c1)C(=O)c1c-2n(CCCNC(C)C)c(=O)c2cc([N+](=O)[O-])ccc12
Test target: NCI-H226 lung
Label class: active
//
Smiles structure: C=C(C)[C@@H]1CC[C@]2(C)CC[C@]3(C)[C@H](CC[C@@H]4[C@@]5(C)CCCNC(C)(C)[C@@H]5CC[C@]43C)[C@@H]12
Test target: NCI-H226 lung
Label class: inactive

Query: What is the recorded call for this compound in the test? COc1ccc(C(=O)/C=C/c2cc(-c3cc(OC)c(OC)c(OC)c3)n[nH]2)cc1OC
Reply: inactive

---

# System: HOP-62 NSCLC
# Test name: NCI-60 one-dose screen, 48 h
# Measurement parameters: 10 µM unless noted
# Procedure: Growth inhibition of the HOP-62 human Non-Small Cell Lung tumor cell line is measured as a screen for anti-cancer activity. Cells are grown in 96 well plates and exposed to the test compound for 48 hours. Compounds are tested at a single concentration, which is 10^-5 M for most compounds. The reported endpoint is percent growth (GI% or GIPRCNT), where numbers from 0 - 100% represent growth inhibition, and numbers from -100% - 0 represent cell death. […]
Compounds without any hit were thinned out: in the full panel of roughly 83,000, 20% have a hit. Calls of active or inactive are those of the source. Rule for the calls: active = growth percent below 10; inactive = the rest.
Parameter call: string, one of active, inactive

Illustrative cases are given below, each with its answer.
Compound: COc1ccc(-c2nc3ccccn3c2-c2nc3ccc(Cl)cc3[nH]2)cc1
Label class: inactive
//
Compound: Cc1cc(C)c(NC(=O)c2sc3nc4c(cc3c2N)CCCC4)c(C)c1
Label class: inactive
//
Compound: COc1ccc2c(c1)c1nc3cc(C)c(C)cc3nc1n2CCN(C)C
Label class: inactive
//
Compound: CCN(CC)CCCCCCNc1ccnc2cc(Cl)ccc12
Label class: inactive
//
Compound: O=C(/C=C/c1ccc2ccccc2c1)Nc1ncc(Cc2ccccc2)s1
Label class: inactive
//
Compound: Nc1ccc(Br)cn1
Label class: inactive
//
Compound: COc1ccc(C2C(C#N)=C(N)Oc3c2sc2c(F)cccc32)cc1 (stereo not given)
Label class: inactive
//
Compound: Brc1ccc2c(c1)c(-c1nc(-c3c[nH]c4ncccc34)cs1)cn2CCCN1CCCCC1
Label class: active

Query: Hi, do you know how COc1ccc(/C=C/C(=O)c2ccc([N+](=O)[O-])cc2)cc1 came out in this test?
Reply: inactive

Query: Now give it for CCOC(=O)N1CCN(CCCCOc2ccc(C(C)(C)CC)cc2)CC1 too.
Reply: inactive
